Assay: yeast display, Sf9 membrane polyspecificity reagent, FACS + sequencing; frameworks hold sequencing errors
Assay metric: polyreactivity (PSR sort gate)

• QVQLVESGGGLVQAGGSLRLSWAASGSIFYQNPMGSYRQAPGKERELVAAISSAGSTYYADSVKGRFTISRDNAKNTVYLQMNSLKPADTAVYYCAADDLGWWFYSGGEDYYYWGQATQVTVSS = low polyreactivity
• QVQLVESGGGLVQAGGSLRLSCAASGSTFSYNAMVWYRQAPRKERELVAAISRRGDNTYYADSVKGRFTISRDNAKNTVYLQMYSLKPEDTAVYYCAAVGYFVKQYAPRYGYWGHGTQVTVSS = low polyreactivity
• QVQLEESGGCLVQAGGSLRLRCAASGRIVALNAMGWYRQAPGKERELVATIRCRGGATYYADSVKGRFTISRDNAKNTVYLQMNSLKPEDNAVYYCDAFTGNRRTYDYWGQGTQVTVSS = high polyreactivity
• QVQLVESGGGLVQAGGSLRLSCAASGITFWHNTMGWYRQAPGKERELVAAISWTGGRTYYADSVKGRFTISRDNAKNTVNFQMNSLNPEDTAVNYCAADFSWTPSGNYDSWGQGTQVTVSS = low polyreactivity
• QVQLVESGGGLVQAGVSLRLSCADSGFTFDGYAMGWYRQAPGKERELVAAISDSGDSTYYADSVKGRFTISRDNAKNTVYLHMNSLKPEDTAVYYCAAGLGYYWSDYFAYDYWGQGTQVTVSS = low polyreactivity

Okay, here is my list. What is polyreactivity (PSR sort gate) for each of these?
1. QVQLVESGGGLVQAGGSLRLSCAASGSIFSPYAMGWYRQAPGKERELVAAISDRGGSTYYADSVKVRFTISRDNAKNTVYLQMNSLKPEDTAVYYCAARVGYAFRYYYWGQGTQVTVSS
2. QVQLVESGGGLVQAGGSLRLSCAASGSTFVWNAMGWYRQAPGKERELVATITLSTGSSYYADSVKGRFTISRDNAKNTVYLQMNSLKPEDTAVYYCNTEIYVDIISDYGYWGQGTQLTVSS
3. QVQLVESGGGLVQAGGSLRLSCAASGLIFSPYAMGWYRQAPGKERELVAAISWRGGRTSYADSVKGRFTISRDNAKNTVYLQMNSLKPEDTAVYYCATRNSSKRRGYYYWGQGTQVTVSS
4. QVQLVESGGGLVQAGGSLRLSCAASGLIFWVYTMGWYRQAPGKERELVASISWNGGSTYYADSVKGRFTISRDNAKNTVYLQMNSLKPEDTAVYYCAAGARYVQRDYWGQGTQVTVSS
5. QVQLVESCGGLVQAGGSHRLSCAASGRIFGVYVMGWYRQAPGKERELVAAISWSCSHTYYADSVKGRYTISRDNAKNTVYLQMNSLKPEDTAVYYCNADSYPDYTGPGLDWYDYWGHGTQVTVSS
6. QVQIVESGGGLVQAGGSLRLSCAASGGIFAVNAMGWYRQAPGKERELVASITRTGGSTSYEDSVKGRFTISRDNAKNTVYLQMNSLKPEDTAVYYCAAGWQVVLSTNGMDYWGQGTQVTVSS
7. QVQLVESGGGLVQAGGSLRLSCAASGSIFLENAMGWYRQAPGKERELVAAISRSGGSTYYADSVKGRFTISRDNAKNTVYLQMNSLKPEDTAVYYCNAYRDVYNYFFGAKYDYWGQGTQVTVSS

a:
high polyreactivity
low polyreactivity
high polyreactivity
low polyreactivity
low polyreactivity
high polyreactivity
high polyreactivity

###

Assay: yeast display, Sf9 membrane polyspecificity reagent, FACS + sequencing; frameworks hold sequencing errors
Assay metric: polyreactivity (PSR sort gate)

Solved entries:
• QVQLVESGGGLVQAGGSLRLSCAASGSIRYNAMGWYRQAPGKERELVAAISYRGGTTYYADSVKGRYTISRDNAKNTVYLQMNSLKPEDTAVYYCNAGVRAYGYSAKYYYWGQGTQVTVSS = high polyreactivity
• QVQLVESGGGLVQAGGSLRLSCAASGSTFNIYAMGWYRQAPGKERELVAAISGNGDRTYYADSVKGRFTISRDNAKNTVYLQMNSLKPEDTAVYYCAAKYYGWGQGTQVTVSS = high polyreactivity
• QVQLVESGGGLVQAGRSLRLSCAASGRISTRYAMGWYRQAPGKERELVAAITIGTDTTYADSVKGRFTISRDNAKNTVYLQMNTLKPEDTAVYYCAAERYILARFEYWGQGTQVTVSS = low polyreactivity
• QVQLVESGGGLVQAGGSLRLSCAASGRIFVYNAMGWYRQAPGKERELVAAINSGDSTYYADSVKGRFTISRDNAKNTVYLQMNSLKPEDTAVYYCAADIHYYPGYLAYDYWGQGTQVTVSS = low polyreactivity

Turning to the following sequence.
q: Supply polyreactivity (PSR sort gate) value. Item: QVQLVESGGPLVQAGGSLRLICAASGRTFYYNAKGWYRQAPGKDRELVAAITWSGGGTYYADSVKGRFTISRDNAKNTDYLQMNSLKPEDTAFYYCAAEDWSIEYEYWGQGTQVTVSS
a: high polyreactivity

###

Experiment: yeast display, Sf9 membrane polyspecificity reagent, FACS + sequencing; frameworks hold sequencing errors
Assay metric: polyreactivity (PSR sort gate)

Solved entries:
- QVQLVESGGGLVQAGGSLRLSCAASGSTFHRYAMGWYRQAPGKERQLVARINGSGGSTYYADSVKGRFTISRDNAKNTVYLQMNSLKPEDTAVYYCNARAVSVRASTKVPSGLYDFWGQGTQVTVSS: low polyreactivity
- QVQLVESGGGLVQAGVSLLISCAASGSTFLLNTMGWYIQAPGKERELVAAISSITGDTYYADSVKVRFTISRDNAKNNDYLQMNSLKPEDTAVYYCAARYYLSSQGWTYDYWGQGTQVTVSS: low polyreactivity
- QVQLVESGGGLVQAGGSLPLSCAASGRIFRRNAKGWYRPAPGKEREMVAAIRYGGGTTYAHSVKGRFTISRDNAKNTVYLQMNSLKPEDTAVYYCAVGPRASFGYGYWGQGTQVTVSS: high polyreactivity
- QVQLVESGGGLVQAGGSLRLSCAASGRIFYVYAMGRYRQAPGKERELVAAINWSGDSTYYADSVKGRFTISRDNAKNTVYLQLNSLKPEDTAVYYCARARPTGYNYWGQGTQVTVSS: high polyreactivity

q: Supply polyreactivity (PSR sort gate) value. Item: QVQLEESGGGLVQAAGSLRLRCAASGSTLTFNAMGWYRHAPGKERELVAAISWSDTDTYYADSVKGRFTISRDNAKNTVYLQMNSLKPEDTAVYYCASTLSAYEMDYWGQGTQVTVSS
a: low polyreactivity

###

Assay: yeast display, Sf9 membrane polyspecificity reagent, FACS + sequencing; frameworks hold sequencing errors
Assay metric: polyreactivity (PSR sort gate)

- QVQLVESWGGLVQAGGSLRLSCAASGRTFYSNAMGWYRQAPGKERELVAAITSTDDSTYYADSVKGRFTISRDNAKNTVYLQMNSLKPEDTAVYYCNTDGLIAIRGLWWVEYDYWGQGTQVTVSS: low polyreactivity
- QVQLVESGGGLVQAGGSLRLSCAASGSTFYVNAMGWYRQAPGKERYADSVKGRFTISRDNAKNTVYLQMNSLKPEDTAVYYCAAKVPEPPSLDESDYWGQGTQVTVSS: low polyreactivity

###

Assay: yeast display, Sf9 membrane polyspecificity reagent, FACS + sequencing; frameworks hold sequencing errors
Assay metric: polyreactivity (PSR sort gate)

Solved entries:
• QVQLVESWGGLVQAGGSLRLSCAASGFTFRYYAMGWYRQAPGKERELVAAITGSGTRTYYADSVKGRFTISRDNAKNTVYLQMNSLKPEDTAVYYCNAPRQPRWFDYWGQGTQVTVSS = high polyreactivity
• QVQLVESGGGLVQAGGSLRLSCDASGSTFPKYAMGWYRQAHGKERELVAAITSSGGRTFYADSVKGRFTISRDNAKNTVYLQMNSLKPEDTAVYYCAAYYYSWSGAFIYDYWGQGTQVTVSS = high polyreactivity
• QVQLVEAGGGLVQAGGSLRLSCAASGSIFVGYAMGWYRPAPGKEREFVAAINYRGGATYYADSVKGRFTISRDNAKNTDYLQMNSLQPEDTAVYYCAVGGWVIYPASLDYWGQGTQVTVSS = low polyreactivity
• QVQLVESGGGLVQAGGSLRLSCAASGRTFYINAMGWYRQAPGKERELVAAITWSGGRTYYADSVKGRFTISRDNAKNTVYLQMNSLKPEDTAVYYCNTRSYSYYVPYRYDYWGQGSQVTVSS = high polyreactivity
• QVQLVESGGGLVQAGGSLRLSCAASGRIFTSYAMGWYRQAPGKEREFVAAITKSGGSTYYADSVKGRFTISRDNAKNTVYLQMNSLKPEDTAVYYCAVEGWDVYQDPYLYDYWGQGTQVTVSS = low polyreactivity

Okay, here is my list. What is polyreactivity (PSR sort gate) for each of these?
1. QVQLVESGGGLVQAGGSLRLSCAASGSTFDTNAMGWYRQAPGKERELVAAISWSRDRTYYADSVKGRFTISRDNAKNTVYLQMNSLNPEDTAVYYCNAYLSFRRQYGYWGQGTQGTVSS
2. QVQLVESGGGLVQARGSLRLSCAASGLTFASYAMGWYRQEPGKERELVARISRSGGSTYYADSVKGRFTISRDNAKNTVYFHMNSLKPEDTAVYYCAADYIFRRYPGGGIYDYDYWGQGTQVTVSS
3. QVQLVESGGGLVQAGGSLRLSCAASGRTFAKYAMGWYRQAPGKERELVASISGRGTNTYYADSVKGRFTISRDNAKNTVYLQMNSLKPEDTAVYYCAATYVYPYRDSHYYYWGQGTQVTVSS

a:
1: high polyreactivity; 2: high polyreactivity; 3: high polyreactivity
